- TEST_SYSTEM: T1, soluble human FcRn (human, UniProt P55899 24-297; P61769 21-119, biotinylated (Sulfo-NHS-LC-Biotin) in the ELISA; amine-coupled to CM5 chip in SPR)
- T1 construct: also called shFcRn; biotinylated shFcRn
- T1 sequence (P55899 24-297 limits assumed, chain 1 of 2): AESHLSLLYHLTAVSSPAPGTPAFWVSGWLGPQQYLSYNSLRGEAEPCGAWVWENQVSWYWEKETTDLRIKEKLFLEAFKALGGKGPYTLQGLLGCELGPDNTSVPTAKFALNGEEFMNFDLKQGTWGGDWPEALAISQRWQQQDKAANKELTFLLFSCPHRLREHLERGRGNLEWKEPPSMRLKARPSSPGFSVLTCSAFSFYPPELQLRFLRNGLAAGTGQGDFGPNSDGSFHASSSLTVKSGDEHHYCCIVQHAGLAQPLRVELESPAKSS
- T1 sequence (P61769 21-119 limits assumed, chain 2 of 2): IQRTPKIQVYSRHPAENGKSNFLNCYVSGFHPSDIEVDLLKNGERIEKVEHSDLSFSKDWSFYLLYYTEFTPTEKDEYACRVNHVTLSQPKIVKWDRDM
- ASSAY_METHOD_TEXT: SPR, pH 6
Numbered stars: 1 amine (or outer) side, 2 acyl side, 3 side chain; on linkers, the order of the positions; unused ones are H or OH. Bridge positions count the residues as written; N and C are the ends. Square brackets hold non-standard residues; d marks the D form. Ends that are not written are not given here. X2 = (3R)‑3‑amino‑1‑carboxymethyl‑valerolactam, O=C1[C@H](N[*:1])CCCN1CC(=O)[*:2]; NMeL = CN[C@@H](CC(C)C)C(=O)O; Pen = CC(C)(S)[C@H](N)C(=O)O; NMeA = CN[C@@H](C)C(=O)O
MEASUREMENT_TYPE: Kd (nM)
Numbers only, in nM.

A selection of reference data follows.
>>> observed_value("RFXTGHFXLYPC (Pen at 3; X at 8 = 5,5-bicyclic dipeptide mimic (drawing CHEM-US-00085); disulfide; C-terminal amide) [Peptide No. 197]")
990
>>> observed_value("RFXTGHFXLYPC (Pen at 3; X at 8 = 3-amino-2-oxo-1-piperidine-acetic acid (drawing CHEM-US-00081); disulfide; C-terminal amide) [Peptide No. 179]")
670
>>> observed_value("RFXTGHFXLYPC (Pen at 3; X at 8 = 3(S)-3-amino-2-oxo-1-azepine acetic acid; disulfide; C-terminal amide) [Peptide No. 205]")
103

Dear colleague, could you send me Kd for each of the items below? Thanks.
1. RFXTGHFXLYPC (Pen at 3; X at 8 = 3-amino-2-oxo-1-piperidine-acetic acid (drawing CHEM-US-00080); disulfide; C-terminal amide) [Peptide No. 178]
2. RF[Pen][NMeA]GHF[X2][NMeL]YPC-NH2 (disulfide 3-12; N-terminus assumed; SMILES CC(C)C[C@H]1C(=O)N[C@@H](Cc2ccc(O)cc2)C(=O)N2CCC[C@H]2C(=O)N[C@H](C(N)=O)CSSC(C)(C)[C@H](NC(=O)[C@H](Cc2ccccc2)NC(=O)[C@@H](N)CCCNC(=N)N)C(=O)N(C)[C@@H](C)C(=O)NCC(=O)N[C@@H](Cc2c[nH]cn2)C(=O)N[C@@H](Cc2ccccc2)C(=O)N[C@@H]2CCCN(CC(=O)N1C)C2=O) [Peptide No. 228]

Result:
160
145

Data credit: patent US20070254831A1
